Experiment: NCI Yeast Anticancer Drug Screen. Data for the bub3 strain (AID 167)
Details: S. cerevisiae bub3 mutant strain, at 50.0 µM (retest, dose inferred, filed as 5.0), active compounds read high
Protocol: Growth inhibition of yeast strains with defined genetic alterations is measured as a screen for potential anti-cancer activity. Selected strains with alterations in DNA damage repair or cell cycle control were exposed to compounds and growth inhibition was measured relative to vehicle treated controls. The strain used in this assay is bub3
About 79,000 compounds went through this panel and 15% of them were active in at least one assay; those are over-represented in the sample as a whole. The source made the active and inactive calls. Cut-off read from the data, not from the text of the source: active = growth inhibition above about 70%; inactive = the rest.
Measurement kind: growth inhibition

| Molecule | Readout value |
| --- | --- |
| CCCCCCCCCCOC(=O)c1cccnc1 | 91% (active) |
| O=C1/C(=C(/Br)I)c2ccccc2-c2ccccc21 | 89% (active) |

# next molecule below
QUERY: Which growth inhibition value belongs to CC1=CC(C2/C(=N/O)C=C(C)CC2(C)C)C(O)C(C)(C)C1 (stereo not drawn) ?
RESULT: 92% (active)
